- Tested on: Trichuris muris adult worms
- assay-remarks: mean motility score (Paragon pixel variance) of adult worms (arbitrary units); higher = more motile worms, i.e. less anthelmintic effect; extreme values may be limits of the assay
- condition-description: 100 µM; 24 h
Kind request: treat 3000 as inclusive, so mean motility score at 3000 or higher is condition met, anything lower is condition not met.

Prompt line: Test whether the compound `Cc1nc(O)c(C#N)cc1-c1ccncc1` records mean motility score of 3000 or higher.
Response line: condition met

Prompt line: Test whether the compound COc1cc2nccc(Oc3ccc(NC(=O)C4(C(=O)Nc5ccc(F)cc5)CC4)cc3)c2cc1OC [cabozantinib] records mean motility score of 3000 or higher.
Response line: condition met

Prompt line: Test whether the compound `CNCCCN1c2ccccc2CCc2ccccc21` records mean motility score of 3000 or higher.
Response line: condition not met

Prompt line: Test whether the compound `O=C(CCCCCCC(=O)Nc1ccccc1)NO` records mean motility score of 3000 or higher.
Response line: condition not met

Prompt line: Test whether the compound `CC/C=C\C/C=C\C/C=C\C/C=C\C/C=C\C/C=C\CCC(=O)O` records mean motility score of 3000 or higher.
Response line: condition met

Prompt line: Test whether the compound `Cc1c(O)cccc1C(=O)N[C@@H](CSc1ccccc1)[C@H](O)CN1C[C@H]2CCCC[C@H]2C[C@H]1C(=O)NC(C)(C)C` records mean motility score of 3000 or higher.
Response line: condition not met

Prompt line: Test whether the compound `CCCCCCCCCCC[C@@H](C[C@@H]1OC(=O)[C@H]1CCCCCC)OC(=O)[C@H](CC(C)C)NC=O` records mean motility score of 3000 or higher.
Response line: condition met

Prompt line: Test whether the compound CN1Cc2c(N)cccc2C(c2ccccc2)C1 (stereo not drawn) records mean motility score of 3000 or higher.
Response line: condition not met

Prompt line: Test whether the compound `CC(=O)Nc1c(I)c(NC(C)=O)c(I)c(C(=O)O)c1I` records mean motility score of 3000 or higher.
Response line: condition not met

Prompt line: Test whether the compound `CC(C)N=c1cc2n(-c3ccc(Cl)cc3)c3ccccc3nc-2cc1Nc1ccc(Cl)cc1` records mean motility score of 3000 or higher.
Response line: condition met

Prompt line: Test whether the compound `N[C@@H](Cc1cc(I)c(Oc2ccc(O)c(I)c2)c(I)c1)C(=O)O` records mean motility score of 3000 or higher.
Response line: condition not met

Prompt line: Test whether the compound Cc1ncc([N+](=O)[O-])n1CC(C)O (stereo not drawn) records mean motility score of 3000 or higher.
Response line: condition not met

Prompt line: Test whether the compound CCCCNc1cc(C(=O)O)cc(S(N)(=O)=O)c1Oc1ccccc1 [bumetanide] records mean motility score of 3000 or higher.
Response line: condition met

Prompt line: Test whether the compound CNC1(C)[C@H]2CC[C@H](C2)C1(C)C.Cl (stereo partly drawn) [mecamylamine hydrochloride] records mean motility score of 3000 or higher.
Response line: condition met

Prompt line: Test whether the compound `O=P(O)(O)C(O)(Cn1ccnc1)P(=O)(O)O` records mean motility score of 3000 or higher.
Response line: condition not met

Prompt line: Test whether the compound `COC(=O)c1ccc2c(c1)NC(=O)/C2=C(\Nc1ccc(N(C)C(=O)CN2CCN(C)CC2)cc1)c1ccccc1` records mean motility score of 3000 or higher.
Response line: condition met

Prompt line: Test whether the compound `CCO[C@@H](Cc1ccc(OCCc2ccc(OS(C)(=O)=O)cc2)cc1)C(=O)O` records mean motility score of 3000 or higher.
Response line: condition met

Each recorded value in this set is attributed to the supplement of paper PMC10503962.
